# Measured on: E340G mutant bovine olfactory CNG channel (Bos taurus, UniProt Q03041, E340G)
# Assay type: biochemical
# Recorded conditions: read-out: K 1/2 (single-channel open probability), cGMP, −80 mV, average
Property name: pEC50
Give bare numbers, as −log10 of the molar value.

Indicate the recorded pEC50 value for this compound: `Nc1nc2c(ncn2[C@@H]2O[C@@H]3COP(=O)(O)O[C@H]3[C@H]2O)c(=O)[nH]1`
4.85

###

# Measured on: E340N mutant bovine olfactory CNG channel (Bos taurus, UniProt Q03041, E340N)
# Assay details: Blockage of macroscopic current by external Ca2+ or Mg2+, outside-out patches
# Assay type: biochemical
# Recorded conditions: external Ca2+, −80 mV, mean ± SD
Property name: Ki (mM)
Give bare numbers, in mM.

Indicate the recorded Ki value for this molecule: `[Ca+2]`
6.5

###

# Measured on: E340N^‡ mutant bovine olfactory CNG channel (Bos taurus, UniProt Q03041, E340Q)
# Assay details: Blockage of macroscopic current by external Ca2+ or Mg2+, outside-out patches
# Assay type: biochemical
# Recorded conditions: external Ca2+, −80 mV, mean ± SD
Property name: pKi
Numbers only, as −log10 of the molar value.

Indicate the recorded pKi value for this compound: `[Ca+2]`
2.68

###

# Measured on: E340D mutant bovine olfactory CNG channel (Bos taurus, UniProt Q03041, E340D)
# Sequence (Q03041 1-663 E340D): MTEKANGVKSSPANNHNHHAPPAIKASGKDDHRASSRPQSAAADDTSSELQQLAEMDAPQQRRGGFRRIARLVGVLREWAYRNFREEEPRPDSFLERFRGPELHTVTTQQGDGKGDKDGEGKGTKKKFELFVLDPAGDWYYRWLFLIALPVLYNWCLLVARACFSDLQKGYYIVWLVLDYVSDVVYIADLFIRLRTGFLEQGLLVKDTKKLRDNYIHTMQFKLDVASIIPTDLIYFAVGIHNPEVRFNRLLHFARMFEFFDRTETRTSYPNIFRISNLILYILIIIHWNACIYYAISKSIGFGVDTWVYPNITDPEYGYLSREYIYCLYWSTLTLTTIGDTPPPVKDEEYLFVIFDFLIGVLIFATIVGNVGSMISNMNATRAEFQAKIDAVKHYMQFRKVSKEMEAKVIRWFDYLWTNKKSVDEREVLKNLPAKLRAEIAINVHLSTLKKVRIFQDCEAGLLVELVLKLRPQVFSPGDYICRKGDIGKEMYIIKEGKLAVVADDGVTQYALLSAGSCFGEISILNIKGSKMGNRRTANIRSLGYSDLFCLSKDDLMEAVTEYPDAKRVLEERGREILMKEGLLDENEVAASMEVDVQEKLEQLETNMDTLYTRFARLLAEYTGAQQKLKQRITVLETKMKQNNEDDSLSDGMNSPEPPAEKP
# Assay type: biochemical
# Recorded conditions: read-out: K 1/2,cG, −80 mV, single patch, Fig. 1 fit
Property name: pEC50
Answers are plain numbers, as −log10 of the molar value.

Enter pEC50 (test system E340D mutant bovine olfactory CNG channel (Bos taurus, UniProt Q03041, E340D)) for `Nc1nc2c(ncn2[C@@H]2O[C@@H]3COP(=O)(O)O[C@H]3[C@H]2O)c(=O)[nH]1`
5.35

###

# Measured on: E340D mutant bovine olfactory CNG channel (Bos taurus, UniProt Q03041, E340D)
# Assay details: Blockage of macroscopic current by external Ca2+ or Mg2+, outside-out patches
# Format: biochemical
# Recorded conditions: external Ca2+, +80 mV, mean ± SD
Property name: Ki (µM)
One number for each entry, in µM.

Enter Ki (test system E340D mutant bovine olfactory CNG channel (Bos taurus, UniProt Q03041, E340D)) for [Ca+2] [Ca^2+]
18
